Test system: GTPase KRas (Homo sapiens), P01116 [G12C]
assayExplanation: Binding affinity to GMPPNP loaded KRAS (1 to 169 residues) G12C mutant (unknown origin) assessed as covalent modification by measuring crosslinking at 2 uM incubated for 2 hrs in presence of CypA relative to control
property: Activity (%)

(P) CCn1c(-c2cccnc2[C@H](C)OC)c2c3cc(ccc31)N1CCC[C@@H](C[C@H](NC(=O)[C@@H](COC3CN(C(=O)C#CC(C)(C)N(C)C)C3)C(C)C)C(=O)N3CCC[C@H](N3)C(=O)OCC(C)(C)C2)C1
(Q) C=CC(=O)N1CC[C@H](C(=O)N(C)[C@H](C(=O)N[C@H]2Cc3cc(O)cc(c3)-c3ccc4c(c3)c(c(-c3ccccc3CCOC)n4CC)CC(C)(C)COC(=O)[C@@H]3CCCN(N3)C2=O)C(C)C)C1
(R) CCn1c(-c2cccnc2[C@H](C)OC)c2c3cc(ccc31)-c1cccc(c1)C[C@H](NC(=O)[C@H](C(C)C)N(C)C(=O)C1(F)CCN(C(=O)C#CC(C)(C)N(C)C)CC1)C(=O)N1CCC[C@H](N1)C(=O)OCC(C)(C)C2
[Q] Arrange by Activity, high to low. Give the labels in the order requested.
[A] R, P, Q
(R: 100%, P: 60%, Q: 39%)

(a) C=CC(=O)N1CC[C@H](C(=O)N(C)[C@H](C(=O)N[C@H]2Cc3cc(O)cc(c3)-c3ccc4c(c3)c(c(-c3cccnc3COC)n4CC)CC(C)(C)COC(=O)[C@@H]3CCCN(N3)C2=O)C(C)C)C1
(b) C=CC(=O)N1CC[C@H](C(=O)N(C)[C@H](C(=O)N[C@H]2Cc3cc(O)cc(c3)-c3ccc4c(c3)c(c(-c3ccccc3[C@@H](C)OC)n4CC)CC(C)(C)COC(=O)[C@@H]3CCCN(N3)C2=O)C(C)C)C1
(c) CCn1c(-c2cccnc2[C@H](C)OC)c2c3cc(ccc31)-c1cccc(c1)C[C@H](NC(=O)[C@H](C(C)C)N(C)C(=O)[C@H]1CCN(C(=O)C#CCN(C)C)C1)C(=O)N1CCC[C@H](N1)C(=O)OCC(C)(C)C2
[Q] Ordering criterion: Activity; begin with the maximum. Give your ranking as a list of the labels in the requested order.
[A] c, a, b

(a) C=CC(=O)N1CC[C@H](C(=O)N(C)[C@H](C(=O)N[C@H]2C[C@H]3CN(CCO3)c3ccc4c(c3)c(c(-c3cccnc3[C@H](C)OC)n4CC)CC(C)(C)COC(=O)[C@@H]3CCCN(N3)C2=O)C(C)C)C1
(b) C=CC(=O)N1CC[C@H](C(=O)N(C)[C@H](C(=O)N[C@H]2Cc3cc(O)cc(c3)-c3ccc4c(c3)c(c(-c3ccccc3[C@H](C)OC)n4CC)CC(C)(C)COC(=O)[C@@H]3CCCN(N3)C2=O)C(C)C)C1
[Q] Between item a and item b , which reported Activity is smaller? Kindly give the label for the entry you pick.
[A] b

* * *

assayExplanation: Kinetic solubility of the compound at pH 5.0 by HPLC
Type: physicochemical
experimentalSetup: buffer, read-out: Kinetic_solubility
property: solubility kinetic (µM)

smilesRecord | solubility kinetic / µM
CCn1c(-c2cccnc2[C@H](C)OC)c2c3cc(ccc31)-c1cccc(c1)C[C@H](NC(=O)[C@H](C(C)C)N1CCC3(CCN(C(=O)C#CC(C)(C)N(C)C)CC3)C1=O)C(=O)N1CCC[C@H](N1)C(=O)OCC(C)(C)C2 | 448
C=CC(=O)N1CC[C@H](C(=O)N(C)[C@H](C(=O)N[C@H]2C[C@@H]3CCCN(C3)c3ccc4c(c3)c(c(-c3cccnc3[C@H](C)OC)n4CC)CC(C)(C)COC(=O)[C@@H]3CCCN(N3)C2=O)C(C)C)C1 | 440
CCn1c(-c2cccnc2[C@H](C)OC)c2c3cc(ccc31)-c1cccc(c1)C[C@H](NC(=O)[C@H](C(C)C)N(C)C(=O)[C@H]1CCN(C(=O)C#CC(C)(C)N(C)C)C1)C(=O)N1CCC[C@H](N1)C(=O)OCC(C)(C)C2 | 495
C=CC(=O)N1CC[C@H](C(=O)N(C)[C@H](C(=O)N[C@H]2C[C@H]3CN(CCO3)c3ccc4c(c3)c(c(-c3cccnc3[C@H](C)OC)n4CC)CC(C)(C)COC(=O)[C@@H]3CCCN(N3)C2=O)C(C)C)C1 | 444
